molecular target: T1, human CD38 Fc-fusion aa 45-300 (human, UniProt P28907 45-300); assay: SPR (Biacore), Fab on immobilized CD38 Fc-fusion
T1 construct: Expressed in HEK293 behind a human Vkappa leader, which is left out here; also called CD38-Fc fusion protein; CD38 Fc-Fusion protein
measured property: pKd
As a rule, pKd stands for the negative log10 of the concentration, concentration in M.

>>> value_measured("MOR03088 Fab (Fab, V domains shown, Fab format) VH: QVQLVESGGGLVQPGGSLRLSCAASGFTFSSYAMNWVRQAPGKGLEWVSGISSWGSSTYYADSVKGRFTISRDNSKNTLYLQMNSLRAEDTAVYYCAREDGSYMTDYFAYWGQGTLVTVSS VL: DIELTQPPSVSVAPGQTARISCSGDNIGHYYVSWYQQKPGQAPVLVIYSDSNRPSGIPERFSGSNSGNTATLTISGTQAEDEADYYCQSYNGTYVFGGGTKLTVLG")
7.02
>>> value_measured("MOR03086 Fab (Fab, V domains shown, Fab format) VH: QVQLVESGGGLVQPGGSLRLSCAASGFTFTSYYMHWVRQAPGKGLEWVSYIDSSGSSTYYADSVKGRFTISRDNSKNTLYLQMNSLRAEDTAVYYCARQLMPFGGYFDVWGQGTLVTVSS VL: DIQMTQSPSSLSASVGDRVTITCRASQNISQWLNWYQQKPGKAPKLLIYGASNLQSGVPSRFSGSGSGTDFTLTISSLQPEDFATYYCQQYYDLPNTFGQGTKVEIKR")
7.52
>>> value_measured("MOR03129 Fab (Fab, V domains shown, Fab format) VH: QVQLVESGGGLVQPGGSLRLSCAASGFTFSNYSMNWVRQAPGKGLEWVSYIYGGGSYTYYADSVKGRFTISRDNSKNTLYLQMNSLRAEDTAVYYCARQAGMYFDVWGQGTLVTVSS VL: DIELTQPPSVSVAPGQTARISCSGDNLGSKVVSWYQQKPGQAPVLVIYYDNKRPSGIPERFSGSNSGNTATLTISGTQAEDEADYYCQSYTFESGSVVFGGGTKLTVLG")
7.37

Here is another binder to look at.
Q: Indicate the recorded pKd value for this binder: MOR03131 Fab (Fab, V domains shown, Fab format) VH: QVQLKESGPALVKPTQTLTLTCTFSGFSLSNSGVGVGWIRQPPGKALEWLADIYSDTTKRYSTSLKTRLTISKDTSKNQVVLTMTNMDPVDTATYYCARYGEAYFDYWGQGTLVTVSS VL: DIELTQPPSVSVAPGQTARISCSGDNLGNFYVHWYQQKPGQAPVLVIYEDSNRPSGIPERFSGSNSGNTATLTISGTQAEDEADYYCSSWDMYRTIFVFGGGTKLTVLG
A: 6.35

These data points were gathered from patent US20240309109A1.
